- SYSTEM: T1, Scc2^1–181-Scc4 complex, wild type, tagged (6His-FLAG-Scc2 1-181; 6His-Scc4) (S. cerevisiae, UniProt Q04002 1-181; P40090 1-624)
- T1 chain 1: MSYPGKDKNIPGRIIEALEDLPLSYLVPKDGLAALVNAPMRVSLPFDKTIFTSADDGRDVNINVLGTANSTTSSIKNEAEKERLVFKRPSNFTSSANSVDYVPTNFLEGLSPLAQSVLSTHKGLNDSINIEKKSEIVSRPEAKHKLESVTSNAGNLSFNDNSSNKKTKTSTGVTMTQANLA
- T1 chain 2: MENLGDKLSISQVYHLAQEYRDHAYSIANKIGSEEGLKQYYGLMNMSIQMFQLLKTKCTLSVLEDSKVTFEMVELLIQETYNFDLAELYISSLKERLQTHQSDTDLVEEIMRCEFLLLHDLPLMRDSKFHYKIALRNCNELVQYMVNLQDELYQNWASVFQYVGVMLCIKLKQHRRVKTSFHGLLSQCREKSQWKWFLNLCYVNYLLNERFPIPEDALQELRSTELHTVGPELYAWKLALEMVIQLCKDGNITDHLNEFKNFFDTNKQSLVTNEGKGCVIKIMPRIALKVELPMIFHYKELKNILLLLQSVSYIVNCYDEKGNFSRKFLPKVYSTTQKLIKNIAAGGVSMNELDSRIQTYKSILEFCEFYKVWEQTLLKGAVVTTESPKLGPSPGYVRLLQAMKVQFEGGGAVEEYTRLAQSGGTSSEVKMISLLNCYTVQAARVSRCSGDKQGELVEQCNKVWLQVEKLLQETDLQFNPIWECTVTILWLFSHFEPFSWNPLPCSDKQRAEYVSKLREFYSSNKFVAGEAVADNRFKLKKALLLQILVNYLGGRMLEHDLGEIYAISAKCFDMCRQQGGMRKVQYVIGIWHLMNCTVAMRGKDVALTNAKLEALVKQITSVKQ
- ASSAY NOTES: BLI; phosphorylated T4; SE 6000+
Non-standard residues stand in square brackets, D forms with d. No end group written: not given here. pT = C[C@@H](OP(=O)(O)O)[C@H](N)C(=O)O
REPORTED METRIC: pKd
Bear in mind: pKd is minus log10 of a mol/L concentration; give just that figure.

Please list pKd recorded for the binder MDF[pT]SDTTNSH [Synthetic Ctf19^1–11 peptide phosphorylated at T4 (MDFpTSDTTNSH)]
2.76
